Below is a list of entries, each paired with its recorded Substrate Selectivity: Ki_AMP-pNP/Ki_cGAMP value.
# Measured Target: ENPP1 (Homo sapiens, UniProt P22413)
# Sequence (P22413 1-925): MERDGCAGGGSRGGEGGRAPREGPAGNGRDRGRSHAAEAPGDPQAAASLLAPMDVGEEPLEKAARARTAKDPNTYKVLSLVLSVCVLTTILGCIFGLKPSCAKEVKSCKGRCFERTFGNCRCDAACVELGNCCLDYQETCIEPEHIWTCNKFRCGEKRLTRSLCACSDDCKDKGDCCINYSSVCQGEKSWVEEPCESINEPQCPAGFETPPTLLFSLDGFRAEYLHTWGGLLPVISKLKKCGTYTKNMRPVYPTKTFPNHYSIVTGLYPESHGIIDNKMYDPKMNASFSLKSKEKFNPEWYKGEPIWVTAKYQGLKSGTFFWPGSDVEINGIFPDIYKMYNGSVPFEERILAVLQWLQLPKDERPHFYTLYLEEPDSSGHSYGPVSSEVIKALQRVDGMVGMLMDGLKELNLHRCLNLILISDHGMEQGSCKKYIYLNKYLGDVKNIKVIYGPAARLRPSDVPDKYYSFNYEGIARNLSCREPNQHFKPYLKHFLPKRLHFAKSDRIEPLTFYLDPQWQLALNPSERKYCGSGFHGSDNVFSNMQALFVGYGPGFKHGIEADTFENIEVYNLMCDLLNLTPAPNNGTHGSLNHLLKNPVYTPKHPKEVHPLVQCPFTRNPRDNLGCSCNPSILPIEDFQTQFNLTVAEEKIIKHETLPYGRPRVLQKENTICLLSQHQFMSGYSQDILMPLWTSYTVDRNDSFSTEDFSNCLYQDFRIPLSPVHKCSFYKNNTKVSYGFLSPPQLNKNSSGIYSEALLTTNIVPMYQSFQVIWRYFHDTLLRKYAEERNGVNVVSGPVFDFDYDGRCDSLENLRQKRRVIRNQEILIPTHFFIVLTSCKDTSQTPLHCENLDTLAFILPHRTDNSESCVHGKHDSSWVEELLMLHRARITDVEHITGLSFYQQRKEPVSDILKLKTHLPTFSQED
# Measurement Protocol: Substrate selectivity ratio, inhibition of cGAMP hydrolysis versus ATP hydrolysis
# Type: biochemical
# Condition Label: ratio Ki AMP-pNP / Ki cGAMP

As a guide, the following entries are already answered.
Requested read-out: Substrate Selectivity: Ki_AMP-pNP/Ki_cGAMP. Entry: `COc1cc2nccc(N3CCC(CN(C4CC4)S(N)(=O)=O)CC3)c2cc1OC`
> 46.1

Tell me the measured Substrate Selectivity: Ki_AMP-pNP/Ki_cGAMP of `COc1cc2ncnc(N3CCC(CCC(N)=O)CC3)c2cc1OC` , please.
> 14.6

Now turn to the next compound.
# query: Substrate Selectivity: Ki_AMP-pNP/Ki_cGAMP of entry `COc1ccc2c(Oc3ccc(NS(N)(=O)=O)cc3)cc(C)nc2c1`
>13

----------
# Measured Target: ENPP1 (Homo sapiens)
# Measurement Protocol: Substrate selectivity ratio, inhibition of cGAMP hydrolysis versus ATP hydrolysis
# Type: biochemical
# Condition Label: ratio Ki AMP-pNP / Ki cGAMP
Observation Type: Substrate Selectivity: Ki_AMP-pNP/Ki_cGAMP

Answered cases to consult:
For `N#Cc1cnc2ccccc2c1N1CCC2(CC1)CCN(S(N)(=O)=O)C2` , what is its reported Substrate Selectivity: Ki_AMP-pNP/Ki_cGAMP?
10.6

What does the data say about its Substrate Selectivity: Ki_AMP-pNP/Ki_cGAMP? Entry: `COc1cc2nccc(Oc3ccc(NS(N)(=O)=O)cc3)c2cc1OC`
>562

Name the reported Substrate Selectivity: Ki_AMP-pNP/Ki_cGAMP value associated with the compound `COc1cc2ncnc(NCc3ccc(C(=O)NO)cc3)c2cc1OC`
> 13.4

Quick check: Substrate Selectivity: Ki_AMP-pNP/Ki_cGAMP of `COc1cc2ncnc(N3CCC(CCNS(=O)(=O)C(F)F)CC3)c2cc1OC` ?
> 16.4

Field request: Substrate Selectivity: Ki_AMP-pNP/Ki_cGAMP | item: `COc1cc2ncc(C#N)c(Nc3ccc(NS(N)(=O)=O)cc3)c2cc1OC`
>63.3

# lookup: Substrate Selectivity: Ki_AMP-pNP/Ki_cGAMP of `COc1ccc2c(Oc3ccc(S(=N)(=O)O)cc3F)ccnc2c1`
>142

Value lookup for Substrate Selectivity: Ki_AMP-pNP/Ki_cGAMP; key = `COc1ccc2ncc(C#N)c(-c3ccc(CN(C4CC4)S(N)(=O)=O)cc3)c2c1`
>119

Quick one: Substrate Selectivity: Ki_AMP-pNP/Ki_cGAMP for COc1ccc2c(-c3ccc(C(C)NS(N)(=O)=O)cc3)ccnc2c1 (stereo not drawn) ?
50

Others:
Which Substrate Selectivity: Ki_AMP-pNP/Ki_cGAMP is listed for `COc1cc2nccc(Oc3ccc(NS(=O)(=O)C4CCC4)cc3)c2cc1OC` ?
>12.9
